Target protein (sequence): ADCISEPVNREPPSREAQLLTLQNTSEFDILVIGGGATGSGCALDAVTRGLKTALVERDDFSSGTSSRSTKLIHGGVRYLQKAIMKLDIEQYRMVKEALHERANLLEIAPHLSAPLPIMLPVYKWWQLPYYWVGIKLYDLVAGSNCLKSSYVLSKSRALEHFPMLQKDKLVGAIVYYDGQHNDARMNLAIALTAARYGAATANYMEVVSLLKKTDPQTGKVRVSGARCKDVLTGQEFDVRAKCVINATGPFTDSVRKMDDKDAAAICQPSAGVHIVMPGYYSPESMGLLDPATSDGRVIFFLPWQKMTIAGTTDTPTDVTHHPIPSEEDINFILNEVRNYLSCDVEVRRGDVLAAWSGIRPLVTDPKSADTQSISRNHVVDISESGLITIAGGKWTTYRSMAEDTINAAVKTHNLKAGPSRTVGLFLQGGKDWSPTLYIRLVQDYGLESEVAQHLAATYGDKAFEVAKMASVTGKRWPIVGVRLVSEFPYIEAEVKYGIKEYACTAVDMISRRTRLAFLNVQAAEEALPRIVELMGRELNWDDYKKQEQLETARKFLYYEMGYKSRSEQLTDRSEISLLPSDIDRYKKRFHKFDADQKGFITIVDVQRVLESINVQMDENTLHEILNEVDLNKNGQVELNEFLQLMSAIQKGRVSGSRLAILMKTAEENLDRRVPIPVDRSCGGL
pKi: −log10 of the molar value.
parameter: pKi

So, CN(C)C(=N)N=C(N)N [metformin] ? Its pKi was ~4.26

###

# subject.of.test: mitochondrial glycerophosphate dehydrogenase (mGPD) (Rattus norvegicus, UniProt P35571)
# Sequence (P35571 43-727): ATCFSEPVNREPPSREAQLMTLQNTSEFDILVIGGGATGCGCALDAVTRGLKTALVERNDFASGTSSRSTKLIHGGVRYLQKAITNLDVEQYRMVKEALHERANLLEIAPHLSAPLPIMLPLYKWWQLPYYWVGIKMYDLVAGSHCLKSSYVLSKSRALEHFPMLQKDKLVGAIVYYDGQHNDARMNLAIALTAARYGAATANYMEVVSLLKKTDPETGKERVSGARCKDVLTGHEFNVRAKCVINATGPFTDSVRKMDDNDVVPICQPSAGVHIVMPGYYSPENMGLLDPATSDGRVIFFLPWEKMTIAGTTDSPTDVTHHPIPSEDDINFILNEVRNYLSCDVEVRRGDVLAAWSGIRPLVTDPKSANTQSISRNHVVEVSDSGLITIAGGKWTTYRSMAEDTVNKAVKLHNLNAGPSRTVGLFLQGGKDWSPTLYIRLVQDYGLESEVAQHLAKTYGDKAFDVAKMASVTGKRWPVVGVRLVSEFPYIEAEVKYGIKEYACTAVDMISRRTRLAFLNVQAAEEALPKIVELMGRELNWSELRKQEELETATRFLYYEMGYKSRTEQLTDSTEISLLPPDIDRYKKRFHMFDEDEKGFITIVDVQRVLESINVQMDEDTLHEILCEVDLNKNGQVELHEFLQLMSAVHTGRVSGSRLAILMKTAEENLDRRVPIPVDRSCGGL
# assay.overview: DCIP reduction assay
# Format: biochemical
pKi: −log10 of the molar value.
parameter: pKi

pKi for CN(C)C(=N)N=C(N)N is ~4.42
